# experiment notes: qHTS RealTime-Glo MT Cell Viability Assay in HEK293 cells - 0 hour (AID 1224880); further: top concentration of the series differs between compounds; nearly all actives have a fitted effect of over 45% in size
# reported conditions: RealTime-Glo luminescence; series mostly up to 76.8 µM
Records with an inconclusive call do not appear. Activity calls are given as the source filed them. The call rests on the fitted dose curve; in most records, active means well fitted cell-killing curve with a large enough effect in the repeat runs; inconclusive means weak or mixed curves, or effect the other way; inactive means flat fitted curve, though single readings scatter.
property: activity change, negative = cytotoxicity

>>> df
                                   compound    result
0                 O=[N+]([O-])/C=C/c1ccccc1  inactive
1                                   CCCCCBr  inactive
2           CCC(C)(C)c1ccc(O)c(C(C)(C)CC)c1  inactive
3  COC1CC(=C(c2cccs2)c2cccs2)C[N+](C)(C)C1 (configuration not stated)  inactive
4                 O=C(Cc1ccccc1)OCCc1ccccc1  inactive

q: Tell us which activity change, negative = cytotoxicity value is on record for `CCCN(CCOc1c(Cl)cc(Cl)cc1Cl)C(=O)n1ccnc1`
a: inactive

q: Tell us which activity change, negative = cytotoxicity value is on record for `CN1C[C@H](C(=O)N[C@]2(C)O[C@@]3(O)[C@@H]4CCCN4C(=O)[C@H](Cc4ccccc4)N3C2=O)C=C2c3cccc4[nH]cc(c34)C[C@H]21`
a: inactive

q: Tell us which activity change, negative = cytotoxicity value is on record for CCCC[N+]1(C)[C@@H]2CC(OC(=O)[C@H](CO)c3ccccc3)C[C@H]1[C@@H]1O[C@@H]12 (some centres not stated)
a: inactive

q: Tell us which activity change, negative = cytotoxicity value is on record for `CCC[N+](CCC)(CCC)CCC`
a: inactive

q: Tell us which activity change, negative = cytotoxicity value is on record for O=C(O)C(O)C(O)C(=O)O (configuration not stated)
a: inactive

q: Tell us which activity change, negative = cytotoxicity value is on record for `O=C(N[C@H]1CN2CCC1CC2)c1ccc2c(c1)OCCO2`
a: inactive

q: Tell us which activity change, negative = cytotoxicity value is on record for `CCCC[N+](CCCC)(CCCC)CCCC`
a: inactive
